Assay: Pharmacokinetic study in male Beagle dogs
Format: in vivo
Details: dog, plasma, IV 1 mg/kg, read-out: Tmax (hours), median (min-max)
Description: Last time of mean concentrations was 24 hours following intravenous bolus injection.

{"columns": ["molecule", "measureUnit", "Tmax"],
 "data": [
  ["CC(C)c1c2cc(-c3ccnc(N[C@H]4CC[C@H](N)C4)n3)ccc2nn1C [Compound I-2]", "h", 0.08]
]}

====

target: human P450 isozyme 2C9 (Homo sapiens); assay: P450 isozyme inhibition assay (baculosomes); conditions: P450 2C9
Sequence (P11712 whole entry): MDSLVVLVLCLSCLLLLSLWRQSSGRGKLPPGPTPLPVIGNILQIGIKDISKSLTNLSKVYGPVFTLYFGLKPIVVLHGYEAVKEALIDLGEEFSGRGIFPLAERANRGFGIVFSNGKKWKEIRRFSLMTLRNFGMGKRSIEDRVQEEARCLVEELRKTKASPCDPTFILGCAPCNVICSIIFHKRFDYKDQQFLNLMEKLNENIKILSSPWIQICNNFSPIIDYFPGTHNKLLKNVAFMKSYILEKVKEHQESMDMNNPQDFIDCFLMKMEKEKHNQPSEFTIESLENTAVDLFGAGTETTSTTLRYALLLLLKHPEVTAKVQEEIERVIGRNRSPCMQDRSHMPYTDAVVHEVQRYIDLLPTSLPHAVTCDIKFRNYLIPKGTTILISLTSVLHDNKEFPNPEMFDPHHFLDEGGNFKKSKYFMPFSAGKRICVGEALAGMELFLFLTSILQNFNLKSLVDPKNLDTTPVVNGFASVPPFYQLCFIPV
pIC50: −log10 of the molar value.

{"columns": ["recordSmiles", "testedSystem", "pIC50"],
 "data": [
  ["CC(C)c1c2cc(-c3ccnc(N[C@H]4CC[C@H](N)C4)n3)ccc2nn1C", "human P450 isozyme 2C9 (Homo sapiens)", 4.29]
]}

====

target: CDK3/cyclinE (Homo sapiens, UniProt Q00526); experiment: CDK family kinase profiling, radioisotope-based assay (33P); details: read-out: 10-dose IC50
Sequence (Q00526 whole entry): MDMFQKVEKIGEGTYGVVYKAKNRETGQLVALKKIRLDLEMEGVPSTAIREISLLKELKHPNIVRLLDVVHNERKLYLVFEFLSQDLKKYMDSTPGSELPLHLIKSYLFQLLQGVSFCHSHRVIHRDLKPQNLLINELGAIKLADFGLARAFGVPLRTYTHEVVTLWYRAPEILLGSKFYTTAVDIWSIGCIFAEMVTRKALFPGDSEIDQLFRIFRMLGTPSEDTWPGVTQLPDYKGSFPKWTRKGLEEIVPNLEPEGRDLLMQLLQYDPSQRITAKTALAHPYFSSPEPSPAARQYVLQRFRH
Sequence (P24864 whole entry partner): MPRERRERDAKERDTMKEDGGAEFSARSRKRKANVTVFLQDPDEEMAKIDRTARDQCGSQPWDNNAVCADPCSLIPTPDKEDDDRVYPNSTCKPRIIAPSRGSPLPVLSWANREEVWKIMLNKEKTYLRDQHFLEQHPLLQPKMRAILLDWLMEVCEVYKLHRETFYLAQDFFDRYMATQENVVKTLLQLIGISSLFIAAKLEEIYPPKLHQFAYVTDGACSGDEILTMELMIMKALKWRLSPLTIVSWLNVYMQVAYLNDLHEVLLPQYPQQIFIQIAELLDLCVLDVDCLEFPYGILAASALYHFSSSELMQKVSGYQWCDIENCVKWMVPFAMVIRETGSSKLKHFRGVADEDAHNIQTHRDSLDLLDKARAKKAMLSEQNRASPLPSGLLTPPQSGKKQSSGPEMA

{"columns": ["recordSmiles", "IC50, µM"],
 "data": [
  ["CC(C)c1c2cc(-c3ccnc(N[C@H]4CC[C@H](N)C4)n3)ccc2nn1C", 0.115]
]}

====

target: human P450 isozyme 3A4 (Homo sapiens); assay: P450 isozyme inhibition assay (baculosomes); details: P450 3A4
Sequence (P08684 whole entry): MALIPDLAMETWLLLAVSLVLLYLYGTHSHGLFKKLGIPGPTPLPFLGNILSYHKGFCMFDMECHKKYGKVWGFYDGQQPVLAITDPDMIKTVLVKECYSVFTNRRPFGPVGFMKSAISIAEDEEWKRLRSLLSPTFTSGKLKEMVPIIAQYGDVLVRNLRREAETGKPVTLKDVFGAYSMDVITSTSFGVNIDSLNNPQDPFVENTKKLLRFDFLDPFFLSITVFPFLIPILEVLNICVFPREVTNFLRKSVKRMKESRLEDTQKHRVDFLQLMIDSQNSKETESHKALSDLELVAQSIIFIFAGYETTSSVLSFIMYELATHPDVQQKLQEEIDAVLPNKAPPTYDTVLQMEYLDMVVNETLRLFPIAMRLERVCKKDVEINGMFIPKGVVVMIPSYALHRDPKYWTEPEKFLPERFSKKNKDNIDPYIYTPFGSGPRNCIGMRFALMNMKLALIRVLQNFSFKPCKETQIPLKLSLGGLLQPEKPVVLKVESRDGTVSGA
pIC50: −log10 of the molar value.

{"columns": ["recordSmiles", "pIC50"],
 "data": [
  ["CC(C)c1c2cc(-c3ccnc(N[C@H]4CC[C@H](N)C4)n3)ccc2nn1C", 4.51]
]}

====

biological target: UniProt:P10635; assay: P450 isozyme inhibition assay (baculosomes); details: P450 2D6
Sequence (P10635 whole entry): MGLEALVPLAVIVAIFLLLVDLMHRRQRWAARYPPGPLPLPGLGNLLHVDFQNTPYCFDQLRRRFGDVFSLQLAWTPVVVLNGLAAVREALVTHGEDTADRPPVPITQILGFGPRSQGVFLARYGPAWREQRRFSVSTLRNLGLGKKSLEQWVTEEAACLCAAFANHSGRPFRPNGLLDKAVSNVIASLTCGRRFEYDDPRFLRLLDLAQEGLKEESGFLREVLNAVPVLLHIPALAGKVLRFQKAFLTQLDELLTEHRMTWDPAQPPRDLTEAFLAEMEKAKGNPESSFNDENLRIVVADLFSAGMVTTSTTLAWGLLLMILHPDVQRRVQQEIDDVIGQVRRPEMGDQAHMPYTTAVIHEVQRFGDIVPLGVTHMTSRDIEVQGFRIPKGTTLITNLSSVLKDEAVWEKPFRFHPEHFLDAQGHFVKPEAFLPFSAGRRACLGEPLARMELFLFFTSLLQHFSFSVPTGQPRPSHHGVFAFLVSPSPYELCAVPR
pIC50: −log10 of the molar value.

{"columns": ["compound", "pIC50"],
 "data": [
  ["CC(C)c1c2cc(-c3ccnc(N[C@H]4CC[C@H](N)C4)n3)ccc2nn1C [Compound I-2]", 4.00]
]}

====

biological target: CDK9 (Homo sapiens, UniProt P50750); assay: DiscoveRx KINOMEscan (KdELECT, scanMAX panel); format: binding; settings: CDK9/cyclinT
Sequence (P50750 whole entry): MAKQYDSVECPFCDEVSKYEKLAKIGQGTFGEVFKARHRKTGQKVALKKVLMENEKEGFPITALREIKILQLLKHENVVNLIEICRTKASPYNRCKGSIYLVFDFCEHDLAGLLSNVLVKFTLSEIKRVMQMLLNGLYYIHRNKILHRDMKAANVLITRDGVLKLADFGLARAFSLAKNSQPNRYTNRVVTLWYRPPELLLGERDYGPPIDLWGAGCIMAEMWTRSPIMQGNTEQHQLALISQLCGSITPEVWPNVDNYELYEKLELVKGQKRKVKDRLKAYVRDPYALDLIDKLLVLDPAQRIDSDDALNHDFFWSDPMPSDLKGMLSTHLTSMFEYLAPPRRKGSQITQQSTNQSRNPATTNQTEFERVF

{"columns": ["molecule", "Kd (nM)"],
 "data": [
  ["CC(C)c1c2cc(-c3ccnc(N[C@H]4CC[C@H](N)C4)n3)ccc2nn1C [Compound I-2]", 4.2]
]}

====

Tested on: LNCap
Experiment: 2D CellTiter-Glo cell viability assay
Type: cell-based
Details: Homo sapiens, 72 hours
Experimental: CellTiter-Glo® 2.0 Luminescent cell viability assay reagent was purchased from Promega and 22Rv1 and LASCPC-01 cell lines were purchased from ATCC. […] An equal volume of CellTiter-Glo 2D Reagent was added to the cell suspensions and luminescence was recorded after 30-minute incubation period. […] FIG. 2 illustrates cellular antiproliferative efficacy of a benchmark CDK9 inhibitor AD-4573 on six prostate cancer cell lines over various concentrations. […]
pIC50: −log10 of the molar value.
Below: a set of entries, each annotated with reported pIC50.

{"columns": ["compound", "testedSystem", "pIC50"],
 "data": [
  ["CC(=O)N[C@@H]1CCC[C@H](C(=O)Nc2cc(-c3cnn4c3CC(C)(C)C4)c(Cl)cn2)C1 [AZD-4573, reference compound]", "LNCap", 5.94],
  ["CC(C)c1c2cc(-c3ccnc(N[C@H]4CC[C@H](N)C4)n3)ccc2nn1C [Compound I-2]", "LNCap", 7.09]
]}
